Data origin: patent US4866057A

Biological target: dopamine D2 receptor (Bos taurus, UniProt P20288)
Construct: bovine nucleus caudatus membranes; from tissue; host or cells: bovine caudate nucleus membranes
Sequence (P20288 whole entry): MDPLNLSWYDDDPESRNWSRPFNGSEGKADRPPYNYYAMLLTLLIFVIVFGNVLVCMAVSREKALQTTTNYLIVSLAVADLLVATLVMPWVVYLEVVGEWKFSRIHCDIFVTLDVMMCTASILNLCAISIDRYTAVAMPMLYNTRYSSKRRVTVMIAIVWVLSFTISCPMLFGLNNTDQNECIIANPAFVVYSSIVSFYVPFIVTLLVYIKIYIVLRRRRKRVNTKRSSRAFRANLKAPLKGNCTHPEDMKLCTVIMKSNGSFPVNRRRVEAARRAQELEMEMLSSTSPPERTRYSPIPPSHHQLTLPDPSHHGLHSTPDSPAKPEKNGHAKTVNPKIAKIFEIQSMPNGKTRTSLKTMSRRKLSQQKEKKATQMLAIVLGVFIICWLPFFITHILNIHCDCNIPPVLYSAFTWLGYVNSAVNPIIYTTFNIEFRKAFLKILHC
Test: Affinity to dopamine D2 receptor, competitive assay, 3H-spiperon
Type: binding, bovine
MEASUREMENT LABEL: Ki

Record request: Ki value, item CN1CCN(C2=Nc3ccccc3/C(=C/C#N)c3cn(C)cc32)CC1
~2 µM

----------
Molecular target: dopamine D1 receptor (Bos taurus)
Construct: bovine nucleus caudatus membranes; from tissue; host or cells: bovine caudate nucleus membranes
Sequence (Q95136 whole entry): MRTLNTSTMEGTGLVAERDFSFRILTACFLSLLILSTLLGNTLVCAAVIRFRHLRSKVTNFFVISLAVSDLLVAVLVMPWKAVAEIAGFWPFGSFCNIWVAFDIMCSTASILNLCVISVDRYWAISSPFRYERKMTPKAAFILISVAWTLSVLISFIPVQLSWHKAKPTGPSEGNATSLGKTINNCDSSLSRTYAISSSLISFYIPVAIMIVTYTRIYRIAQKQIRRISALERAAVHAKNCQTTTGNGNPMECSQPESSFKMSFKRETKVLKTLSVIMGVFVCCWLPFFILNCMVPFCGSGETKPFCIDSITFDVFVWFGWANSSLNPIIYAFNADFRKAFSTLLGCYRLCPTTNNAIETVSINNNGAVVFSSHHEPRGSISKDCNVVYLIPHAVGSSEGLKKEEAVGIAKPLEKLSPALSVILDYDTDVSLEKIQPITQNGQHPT
Assay: Affinity to dopamine D1 receptor, competitive assay, 3H-SCH 23390
Format: binding, bovine
Settings: bovine nucleus caudatus membranes, pH 7.4, 30° C., 60 min, 1 nM radioligand; read-out: Affinity to D1 receptor, Inhibition of 3H-SCH 23 390 binding, Ki
Please go through the items and note down their Ki.
One number for each entry, in µM.

[
  {
    "SMILES STRING": "CN1CCN(C2=Nc3cc(Cl)ccc3C(=CC#N)c3cn(C)cc32)CC1",
    "MEASUREMENT LABEL": "Ki",
    "NUMERIC RESULT": 0.02
  },
  {
    "SMILES STRING": "CN1CCN(C2=Nc3ccccc3C(=CC#N)c3cn(Cc4ccccc4)cc32)CC1",
    "MEASUREMENT LABEL": "Ki",
    "NUMERIC RESULT": 0.0034
  },
  {
    "SMILES STRING": "CCN1CCN(C2=Nc3ccccc3C(=CC#N)c3cn(C)cc32)CC1",
    "MEASUREMENT LABEL": "Ki",
    "NUMERIC RESULT": 0.0208
  }
]

Next compound, Ki to be filled in.
Record request: Ki value, item CN1CCN(C2=Nc3cc(Cl)ccc3C(=CC#N)c3cn(Cc4ccccc4)cc32)CC1
0.0128

----------
Please go through the items and note down their pKi.
Target: dopamine D2 receptor (Bos taurus)
Construct: bovine nucleus caudatus membranes; from tissue; host or cells: bovine caudate nucleus membranes
Test: Affinity to dopamine D2 receptor, competitive assay, 3H-spiperon
Assay type: binding, bovine
Conditions: bovine nucleus caudatus membranes, pH 7.4, 30° C., 60 min, 0.2 nM radioligand; read-out: Affinity to D2 receptor, Inhibition of 3H-spiperon binding, Ki
pKi: −log10 of the molar value.

[
  {
    "SMILES STRING": "CN1CCN(C2=Nc3ccccc3C(=CC#N)c3cn(Cc4ccccc4)cc32)CC1",
    "SYSTEM NAME": "dopamine D2 receptor (Bos taurus)",
    "pKi": "~6.00"
  },
  {
    "SMILES STRING": "CN1CCN(C2=Nc3cc(Cl)ccc3C(=CC#N)c3cn(C)cc32)CC1",
    "SYSTEM NAME": "dopamine D2 receptor (Bos taurus)",
    "pKi": "~6.00"
  }
]

Respectfully, I request pKi for each entry included below.
1. CCN1CCN(C2=Nc3ccccc3C(=CC#N)c3cn(C)cc32)CC1
2. CN1CCN(C2=Nc3cc(Cl)ccc3C(=CC#N)c3cn(Cc4ccccc4)cc32)CC1

~5.70
~6.00

----------
Biological target: dopamine D1 receptor (Bos taurus)
Construct: bovine nucleus caudatus membranes; from tissue; host or cells: bovine caudate nucleus membranes
Assay: Affinity to dopamine D1 receptor, competitive assay, 3H-SCH 23390
Format: binding, bovine
MEASUREMENT LABEL: Ki (nM)
Give bare numbers, in nM.

Record request: Ki value, item CN1CCN(C2=Nc3ccccc3/C(=C/C#N)c3cn(C)cc32)CC1 [Example 1a]
10.5
